target.or.test.system: hMC4-R (Homo sapiens (Human), UniProt P32245)
Sequence (P32245 whole entry): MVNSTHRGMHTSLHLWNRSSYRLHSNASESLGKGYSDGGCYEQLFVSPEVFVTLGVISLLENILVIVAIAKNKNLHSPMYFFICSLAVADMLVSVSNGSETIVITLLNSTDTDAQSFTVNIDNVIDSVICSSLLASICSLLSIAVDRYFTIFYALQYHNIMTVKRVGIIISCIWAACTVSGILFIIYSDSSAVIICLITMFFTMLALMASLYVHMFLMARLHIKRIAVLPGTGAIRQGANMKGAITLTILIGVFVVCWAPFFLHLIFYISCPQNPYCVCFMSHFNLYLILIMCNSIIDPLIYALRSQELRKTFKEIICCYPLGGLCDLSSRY
protocol.description: Competitive binding assay using Eu-NDP-α-MSH (TRF), hMC4-R membranes
condition.parameters: averaged; Eu-NDP-α-MSH (values marked *); read-out: MC4-R Ki
Peptide text beside a SMILES is read from it.
quantity.measured: pKi
// scale note: pKi = -log10(conc_M); give the bare number

compound: CSCC[C@@H]1NC(=O)[C@@H](NC(=O)[C@H](CCCNC(=N)N)NC(C)=O)CC(=O)NCCCC[C@@H](C(N)=O)NC(=O)[C@H](Cc2c[nH]c3ccccc23)NC(=O)[C@H](CCCNC(=N)N)NC(=O)[C@@H](Cc2ccccc2)NC1=O [compound 38] (HELM PEPTIDE1{[ac].R.D.M.[dF].R.W.K.[am]}$PEPTIDE1,PEPTIDE1,3:R3-8:R3$$$V2.0)
target.or.test.system: hMC4-R (Homo sapiens (Human), UniProt P32245)
quantity.measured: pKi
observed.result: 7.46
--
compound: CC(=O)N[C@H](CCCCN)C(=O)N[C@H]1CCCNC(=O)CC[C@@H](C(N)=O)NC(=O)[C@H](Cc2c[nH]c3ccccc23)NC(=O)[C@H](CCCNC(=N)N)NC(=O)[C@@H](Cc2ccccc2)NC(=O)[C@H](Cc2c[nH]cn2)NC1=O
target.or.test.system: hMC4-R (Homo sapiens (Human), UniProt P32245)
quantity.measured: pKi
observed.result: 8.10
--
compound: CC(=O)N[C@@H](CCCNC(=N)N)C(=O)N[C@H]1CC(=O)NCCCC[C@@H](C(N)=O)NC(=O)[C@H](Cc2c[nH]c3ccccc23)NC(=O)[C@H](CCCNC(=N)N)NC(=O)[C@@H](Cc2ccccc2)NC(=O)[C@H]([C@@H](C)O)NC1=O [compound 35] (HELM PEPTIDE1{[ac].R.D.T.[dF].R.W.K.[am]}$PEPTIDE1,PEPTIDE1,3:R3-8:R3$$$V2.0)
target.or.test.system: hMC4-R (Homo sapiens (Human), UniProt P32245)
quantity.measured: pKi
observed.result: 6.85

[Q] Could you tell me which pKi is on file for CC(=O)N[C@@H](CCCNC(=N)N)C(=O)N[C@H]1CCCC(=O)NCC[C@@H](C(N)=O)NC(=O)[C@H](Cc2c[nH]c3ccccc23)NC(=O)[C@H](CCCNC(=N)N)NC(=O)[C@@H](Cc2ccccc2)NC(=O)[C@H](CCN)NC1=O ?
[A] 8.70

----------
pEC50 for assorted compounds
target.or.test.system: UniProtKB P32245
protocol.description: Assay for agonist activity: cAMP accumulation in HEK-293 cells that express hMC4-R
Peptide text beside a SMILES is read from it.
When answering, recall that pEC50 equals minus log10 of the concentration in mol/L, and write that number alone.

compound: CC(=O)N[C@H](CCCNC(=N)N)C(=O)N[C@H]1CC(=O)NCCCC[C@@H](C(N)=O)NC(=O)[C@H](Cc2c[nH]c3ccccc23)NC(=O)[C@H](CCCNC(=N)N)NC(=O)[C@@H](Cc2ccccc2)NC(=O)[C@H](CCC(N)=O)NC1=O
observed.result: 8.70

[Q] Which pEC50 value is on record for CC(=O)N[C@@H](CCCNC(=N)N)C(=O)N[C@H]1CCCC(=O)NCC[C@@H](C(N)=O)NC(=O)[C@H](Cc2c[nH]c3ccccc23)NC(=O)[C@H](CCCNC(=N)N)NC(=O)[C@@H](Cc2ccccc2)NC(=O)[C@H](CC(N)=O)NC1=O [compound 160] (HELM PEPTIDE1{[ac].R.[O=C([C@H](CCCC(=O)[*:3])N[*:1])[*:2]].N.[dF].R.W.[Dab].[am]}$PEPTIDE1,PEPTIDE1,3:R3-8:R3$$$V2.0) ?
[A] 9.61

[Q] Report pEC50 for CC(=O)N[C@@H](CCCNC(=N)N)C(=O)N[C@H]1CCNC(=O)CCC[C@@H](C(N)=O)NC(=O)[C@H](Cc2c[nH]c3ccccc23)NC(=O)[C@H](CCCNC(=N)N)NC(=O)[C@@H](Cc2ccccc2)NC(=O)[C@H](CCC(N)=O)NC1=O please.
[A] 9.08

[Q] Using the record for CC(=O)N[C@@H](CCCNC(=N)N)C(=O)N[C@H]1CCCCNC(=O)C[C@@H](C(N)=O)NC(=O)[C@H](Cc2c[nH]c3ccccc23)NC(=O)[C@H](CCCNC(=N)N)NC(=O)[C@@H](Cc2ccccc2)NC(=O)[C@H](CC(N)=O)NC1=O [compound 155] (HELM PEPTIDE1{[ac].R.K.N.[dF].R.W.D.[am]}$PEPTIDE1,PEPTIDE1,3:R3-8:R3$$$V2.0) , report its pEC50.
[A] 9.72

[Q] Given the compound CC(=O)N[C@@H](CCCNC(=N)N)C(=O)N[C@H]1CCCC(=O)NCC[C@@H](C(N)=O)NC(=O)[C@H](Cc2c[nH]c3ccccc23)NC(=O)[C@H](CCCNC(=N)N)NC(=O)[C@@H](Cc2ccccc2)NC(=O)[C@H](Cc2c[nH]cn2)NC1=O , what is its reported pEC50?
[A] 10.33

// provenance: patent US8846601B2
